SYSTEM_NAME: BRM (Homo sapiens)
RUN_DESCRIPTION: ATPase catalytic activity assay of BRM (ADP-Glo)
Type: biochemical
CONDITION: read-out: BRM IC50 (μM)*
PARAMETER: IC50

The recorded IC50 for entry CCOC(=O)N1CCCC(c2csc(NC(=O)CNC(=O)c3ccc4c(c3)[C@](C)(F)COC4)n2)C1 (stereo in doubt) [Compound 283] equals < 0.1 µM

The recorded IC50 for entry C[C@@H]1CN(c2cccc(-c3csc(NC(=O)CNC(=O)c4cccc(C5(CF)COC5)c4)n3)c2)C[C@H](C)O1 [Compound 149] equals 0.1 to 1 µM

The recorded IC50 for entry C[C@@H]1CN(c2cccc(-c3csc(NC(=O)CNC(=O)c4ccc5c(c4)C(C)(C#N)CNC5)n3)c2)C[C@H](C)O1 (stereo partly shown) [Compound 310] equals < 0.1 µM

The recorded IC50 for entry CC(C)S(=O)(=O)c1cccc(C(=O)NCC(=O)Nc2nc(-c3cccc(-c4cc(C#N)cc(C#N)c4)c3)cs2)c1 [Compound 21] equals 0.1 to 1 µM

The recorded IC50 for entry C[C@@H]1CN(c2cccc(-c3csc(NC(=O)CNC(=O)c4ccnc(C(C)(C)CO)c4)n3)c2)C[C@H](C)O1 [Compound 139] equals 0.1 to 1 µM

The recorded IC50 for entry C[C@@H]1CN(c2cccc(-c3csc(NC(=O)CNC(=O)c4ccc5c(c4)[C@](C)(C#N)CN5C)n3)c2)C[C@H](C)O1 [Compound 369] equals < 0.1 µM

The recorded IC50 for entry CC(C)S(=O)(=O)c1cccc(C(=O)NCC(=O)Nc2nc(-c3cccc(N4C[C@@H](C)O[C@@H](C)C4)c3)cs2)c1 [Compound 14] equals < 0.1 µM

The recorded IC50 for entry CC1(C)c2cc(C(=O)NCC(=O)Nc3nc(-c4cccc(-c5ccncc5)c4)cs3)ccc2C[C@@H]1N [Compound 250] equals 1 to 5 µM

The recorded IC50 for entry C[C@@H]1CN(c2cccc(-c3csc(NC(=O)CNC(=O)c4ccc5c(c4)[C@@](C)(CO)CC5)n3)c2)C[C@H](C)O1 [Compound 219] equals < 0.1 µM

The recorded IC50 for entry CCC(C)(O)c1cccc(C(=O)NCC(=O)Nc2nc(-c3cccc(-c4ccncc4)c3)cs2)c1 (single isomer, unassigned) [Compound 81] equals 0.1 to 1 µM

The recorded IC50 for entry C[C@@H]1CN(c2cccc(-c3csc(NC(=O)CNC(=O)c4ccc5c(c4)[C@](C)(C#N)CCO5)n3)n2)C[C@H](C)O1 [Compound 153] equals < 0.1 µM

The recorded IC50 for entry CC1(C(N)=O)CCc2ccc(C(=O)NCC(=O)Nc3nc(-c4cccc(-c5ccncc5)c4)cs3)cc21 (stereo not shown) [Compound 96] equals 0.1 to 1 µM

The recorded IC50 for entry C[C@@H]1CN(c2cccc(-c3csc(NC(=O)CNC(=O)c4ccc5c(c4)[C@@]4(COC5)CC4(F)F)n3)n2)C[C@H](C)O1 [Compound 410] equals < 0.1 µM

---

SYSTEM_NAME: BRM (Homo sapiens)
RUN_DESCRIPTION: ATPase catalytic activity assay of BRM (ADP-Glo)
Format: biochemical
CONDITION: read-out: BRM IC50 (μM)*
PARAMETER: IC50

The recorded IC50 for entry COC(=O)N1CCC[C@H](c2csc(NC(=O)CNC(=O)c3ccc4c(c3)C(C)(F)COC4)n2)C1 (stereo in doubt) equals 0.1 to 1 µM

The recorded IC50 for entry CC(C)S(=O)(=O)c1cccc(C(=O)NCC(=O)Nc2nc(-c3cccc(-c4cccc(C#N)c4)c3)cs2)c1 equals 0.1 to 1 µM

The recorded IC50 for entry CC(C)(CN)c1cccc(C(=O)NCC(=O)Nc2nc(-c3cccc(-c4cccc(C#N)c4)c3)cs2)c1 equals 0.1 to 1 µM

The recorded IC50 for entry CC(C)(CN)c1cccc(C(=O)NCC(=O)Nc2nc(-c3cccc(-c4ccnc(N)c4)c3)cs2)c1 equals < 0.1 µM

The recorded IC50 for entry C[C@@]1(C#N)COCc2ccc(C(=O)NCC(=O)Nc3nc(-c4cccc(N5CC(F)(F)C5)c4)cs3)cc21 equals < 0.1 µM

The recorded IC50 for entry C[C@@H]1CN(c2cccc(-c3csc(NC(=O)CNC(=O)c4cccc(C5(C(F)F)CCOC5)c4)n3)c2)C[C@H](C)O1 (stereo partly shown) equals < 0.1 µM

The recorded IC50 for entry C[C@@H]1CN(c2cccc(-c3csc(NC(=O)CNC(=O)c4ccc5c(c4)[C@@]4(CCC[C@H]4O)CC5)n3)c2)C[C@H](C)O1 equals 0.1 to 1 µM

---

SYSTEM_NAME: BRG-1 (Homo sapiens, UniProt P51532)
Sequence (P51532 whole entry): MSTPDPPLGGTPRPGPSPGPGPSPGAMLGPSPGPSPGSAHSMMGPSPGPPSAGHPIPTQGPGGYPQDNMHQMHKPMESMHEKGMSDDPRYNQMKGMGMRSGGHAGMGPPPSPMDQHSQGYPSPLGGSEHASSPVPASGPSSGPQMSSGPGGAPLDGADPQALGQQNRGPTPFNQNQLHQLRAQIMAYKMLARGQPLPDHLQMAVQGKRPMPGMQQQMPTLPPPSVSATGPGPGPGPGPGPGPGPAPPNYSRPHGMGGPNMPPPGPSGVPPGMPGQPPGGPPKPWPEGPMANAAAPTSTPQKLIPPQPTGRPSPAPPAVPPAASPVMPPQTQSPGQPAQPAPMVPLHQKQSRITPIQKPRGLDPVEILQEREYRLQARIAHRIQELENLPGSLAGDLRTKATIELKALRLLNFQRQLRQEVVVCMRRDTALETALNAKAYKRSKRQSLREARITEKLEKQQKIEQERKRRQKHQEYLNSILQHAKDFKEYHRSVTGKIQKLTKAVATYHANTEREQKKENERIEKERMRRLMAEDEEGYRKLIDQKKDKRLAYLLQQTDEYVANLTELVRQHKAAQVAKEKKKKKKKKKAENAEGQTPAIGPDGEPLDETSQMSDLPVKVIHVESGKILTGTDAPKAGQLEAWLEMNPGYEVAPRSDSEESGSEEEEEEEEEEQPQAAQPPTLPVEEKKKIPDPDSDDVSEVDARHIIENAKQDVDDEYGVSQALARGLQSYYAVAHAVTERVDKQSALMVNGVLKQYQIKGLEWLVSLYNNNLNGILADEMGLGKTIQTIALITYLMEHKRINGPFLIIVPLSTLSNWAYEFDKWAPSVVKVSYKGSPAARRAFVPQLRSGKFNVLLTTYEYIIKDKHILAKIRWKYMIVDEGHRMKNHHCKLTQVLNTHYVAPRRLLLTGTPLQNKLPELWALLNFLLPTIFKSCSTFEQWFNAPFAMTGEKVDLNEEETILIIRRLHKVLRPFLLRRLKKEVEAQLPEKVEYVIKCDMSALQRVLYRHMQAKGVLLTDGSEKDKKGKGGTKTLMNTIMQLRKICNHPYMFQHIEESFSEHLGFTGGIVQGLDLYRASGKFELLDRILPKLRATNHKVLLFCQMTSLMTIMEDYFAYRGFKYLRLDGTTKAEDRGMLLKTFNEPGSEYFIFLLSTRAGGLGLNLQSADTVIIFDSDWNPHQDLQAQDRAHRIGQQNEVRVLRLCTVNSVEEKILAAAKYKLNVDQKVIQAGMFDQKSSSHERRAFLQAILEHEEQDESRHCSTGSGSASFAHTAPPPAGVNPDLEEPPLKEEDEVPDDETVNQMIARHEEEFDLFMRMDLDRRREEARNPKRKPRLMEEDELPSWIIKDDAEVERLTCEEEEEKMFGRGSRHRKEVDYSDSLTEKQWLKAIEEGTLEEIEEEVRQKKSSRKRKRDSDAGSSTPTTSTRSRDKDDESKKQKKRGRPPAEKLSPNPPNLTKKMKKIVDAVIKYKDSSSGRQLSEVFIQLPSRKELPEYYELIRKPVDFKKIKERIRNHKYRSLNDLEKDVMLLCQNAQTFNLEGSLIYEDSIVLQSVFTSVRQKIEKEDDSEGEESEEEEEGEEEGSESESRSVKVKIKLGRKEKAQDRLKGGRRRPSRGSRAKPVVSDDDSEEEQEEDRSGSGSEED
RUN_DESCRIPTION: ATPase catalytic activity assay of BRG-1 (ADP-Glo)
Type: biochemical
CONDITION: ATPase catalytic activity, ADP-Glo; read-out: BRG1 IC50 (μM)*
I'd appreciate it if you could supply IC50 values for the items below.

The recorded IC50 for entry COc1cccc(-c2csc(NC(=O)CNC(=O)c3ccc4c(c3)C(C)(F)CCCO4)n2)c1 (stereo in doubt) [Compound 324] equals 0.1 to 1 µM

The recorded IC50 for entry Cc1nccc(-c2cccc(-c3csc(NC(=O)CNC(=O)c4cccc(C(C)(C)CN)c4)n3)c2)n1 [Compound 95] equals 0.1 to 1 µM

The recorded IC50 for entry C[C@@H]1CN(c2cccc(-c3csc(NC(=O)CNC(=O)c4ccc5c(c4)[C@@](C)(CO)CN5C)n3)c2)C[C@H](C)O1 equals > 5 µM

The recorded IC50 for entry C[C@@H](N)C(C)(C)c1cccc(C(=O)NCC(=O)Nc2nc(-c3cccc(-c4ccncc4)c3)cs2)c1 equals 1 to 5 µM

---

SYSTEM_NAME: BRM (Homo sapiens, UniProt P51531)
Sequence (P51531 whole entry): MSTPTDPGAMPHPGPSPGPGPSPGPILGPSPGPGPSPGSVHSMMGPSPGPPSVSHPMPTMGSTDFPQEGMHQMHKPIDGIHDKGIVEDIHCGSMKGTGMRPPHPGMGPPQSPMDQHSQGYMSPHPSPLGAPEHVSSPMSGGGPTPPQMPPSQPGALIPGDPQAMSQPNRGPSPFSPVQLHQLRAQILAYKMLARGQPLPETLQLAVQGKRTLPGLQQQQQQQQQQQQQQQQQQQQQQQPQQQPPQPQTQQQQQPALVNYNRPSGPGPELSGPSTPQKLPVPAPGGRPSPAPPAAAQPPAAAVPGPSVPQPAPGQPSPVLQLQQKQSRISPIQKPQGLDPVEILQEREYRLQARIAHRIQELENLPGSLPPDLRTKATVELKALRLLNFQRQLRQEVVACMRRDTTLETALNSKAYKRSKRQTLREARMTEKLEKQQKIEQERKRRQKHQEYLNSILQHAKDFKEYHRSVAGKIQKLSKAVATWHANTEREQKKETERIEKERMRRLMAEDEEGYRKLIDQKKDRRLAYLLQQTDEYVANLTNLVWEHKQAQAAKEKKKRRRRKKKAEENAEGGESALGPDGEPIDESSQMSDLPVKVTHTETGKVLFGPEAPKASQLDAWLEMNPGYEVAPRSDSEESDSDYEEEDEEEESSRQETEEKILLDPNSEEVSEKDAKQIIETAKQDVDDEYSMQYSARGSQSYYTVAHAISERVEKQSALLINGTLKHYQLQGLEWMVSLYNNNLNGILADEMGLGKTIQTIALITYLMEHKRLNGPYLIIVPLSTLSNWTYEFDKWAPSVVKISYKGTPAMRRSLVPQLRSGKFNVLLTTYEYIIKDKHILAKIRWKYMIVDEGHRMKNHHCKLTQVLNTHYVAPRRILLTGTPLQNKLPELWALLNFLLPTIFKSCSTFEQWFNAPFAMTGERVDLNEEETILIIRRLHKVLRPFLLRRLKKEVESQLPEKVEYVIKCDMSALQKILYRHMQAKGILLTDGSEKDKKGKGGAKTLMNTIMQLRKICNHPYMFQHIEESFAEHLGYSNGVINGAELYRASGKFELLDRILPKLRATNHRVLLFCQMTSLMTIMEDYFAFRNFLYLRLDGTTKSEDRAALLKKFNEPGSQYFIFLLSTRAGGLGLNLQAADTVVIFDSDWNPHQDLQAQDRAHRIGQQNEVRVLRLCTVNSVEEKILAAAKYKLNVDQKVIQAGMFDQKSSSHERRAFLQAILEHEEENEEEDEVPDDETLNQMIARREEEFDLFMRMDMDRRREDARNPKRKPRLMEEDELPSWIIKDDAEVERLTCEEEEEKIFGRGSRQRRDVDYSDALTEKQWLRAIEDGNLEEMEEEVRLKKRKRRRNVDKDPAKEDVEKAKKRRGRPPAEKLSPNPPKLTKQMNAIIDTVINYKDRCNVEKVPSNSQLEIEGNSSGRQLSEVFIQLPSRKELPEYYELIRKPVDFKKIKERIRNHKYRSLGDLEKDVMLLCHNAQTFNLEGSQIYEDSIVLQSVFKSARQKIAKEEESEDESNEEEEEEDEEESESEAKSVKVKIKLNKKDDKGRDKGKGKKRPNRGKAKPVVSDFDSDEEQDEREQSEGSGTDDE
RUN_DESCRIPTION: ATPase catalytic activity assay of BRM (ADP-Glo)
Assay type: biochemical
CONDITION: read-out: BRM IC50 (μM)*
PARAMETER: IC50

The recorded IC50 for entry Cc1cncc(-c2cccc(-c3csc(NC(=O)CNC(=O)c4ccc5c(c4)[C@](C)(CO)CC5)n3)n2)n1 equals < 0.1 µM

The recorded IC50 for entry Cn1ccc2ccc(-c3csc(NC(=O)CNC(=O)c4cccc(C5(C#N)CCC5)c4)n3)cc2c1=O equals 0.1 to 1 µM

The recorded IC50 for entry C[C@@H]1CN(c2cccc(-c3csc(NC(=O)CNC(=O)c4cccc([C@@]5(O)CCOC5)c4)n3)n2)C[C@H](C)O1 equals 0.1 to 1 µM

The recorded IC50 for entry CC(C(F)(F)F)S(=O)(=O)c1cccc(C(=O)NCC(=O)Nc2nc(-c3cccc(-c4ccncc4)c3)cs2)c1 (stereo not shown) [Compound 112] equals 0.1 to 1 µM

---

SYSTEM_NAME: BRM (Homo sapiens, UniProt P51531)
RUN_DESCRIPTION: ATPase catalytic activity assay of BRM (ADP-Glo)
Type: biochemical
CONDITION: read-out: BRM IC50 (μM)*
PARAMETER: IC50

Summary: C[C@@H]1CN(c2cccc(-c3csc(NC(=O)CNC(=O)c4cccc([C@]5(F)C[C@H](O)C5)c4)n3)c2)C[C@H](C)O1 [Compound 150] , BRM (Homo sapiens, UniProt P51531), IC50 = < 0.1 µM

Summary: C[C@@]1(F)COCc2ccc(C(=O)NCC(=O)Nc3nc(-c4ccccc4)cs3)cc21 [Compound 303] , BRM (Homo sapiens, UniProt P51531), IC50 = < 0.1 µM

Summary: C[C@@H]1CN(c2cccc(-c3csc(NC(=O)CNC(=O)c4cnc5c(c4)[C@](C)(C#N)CC5)n3)c2)C[C@H](C)O1 [Compound 170] , BRM (Homo sapiens, UniProt P51531), IC50 = < 0.1 µM

Summary: Cc1cc(-c2cccc(-c3csc(NC(=O)CNC(=O)c4cccc(C(C)(C)C(C)C)c4)n3)c2)cc(C)n1 [Compound 90] , BRM (Homo sapiens, UniProt P51531), IC50 = 1 to 5 µM

Summary: C[C@@H](N)C(C)(C)c1cccc(C(=O)NCC(=O)Nc2nc(-c3cccc(-c4ccncc4)c3)cs2)c1 [Compound 109] , BRM (Homo sapiens, UniProt P51531), IC50 = 1 to 5 µM

Summary: CC(O)(c1cccc(C(=O)NCC(=O)Nc2nc(-c3cccc(-c4ccncc4)c3)cs2)c1)C(F)(F)F (centres unmarked) [Compound 78] , BRM (Homo sapiens, UniProt P51531), IC50 = 0.1 to 1 µM

Summary: C[C@@H]1CN(c2cccc(-c3csc(NC(=O)CNC(=O)c4cccc(C5(CO)COC5)c4)n3)c2)C[C@H](C)O1 [Compound 168] , BRM (Homo sapiens, UniProt P51531), IC50 = 0.1 to 1 µM

Summary: C[C@H](CO)S(=O)(=O)c1cccc(C(=O)NCC(=O)Nc2nc(-c3cccc(-c4ccncc4)c3)cs2)c1 [Compound 116] , BRM (Homo sapiens, UniProt P51531), IC50 = 0.1 to 1 µM

Summary: C[C@@H]1CN(c2cccc(-c3csc(NC(=O)CNC(=O)c4cnc5c(c4)[C@@](C)(C#N)CC5)n3)c2)C[C@H](C)O1 [Compound 253] , BRM (Homo sapiens, UniProt P51531), IC50 = 1 to 5 µM

Summary: C[C@@H]1CN(c2cccc(-c3csc(NC(=O)CNC(=O)c4cccc([C@]5(C(F)F)CCOC5)c4)n3)c2)C[C@H](C)O1 [Compound 285] , BRM (Homo sapiens, UniProt P51531), IC50 = < 0.1 µM

Summary: Cc1cc(-c2cccc(-c3csc(NC(=O)CNC(=O)c4ccc(C)c(C(C)(C)CN)c4)n3)n2)ncn1 [Compound 201] , BRM (Homo sapiens, UniProt P51531), IC50 = < 0.1 µM

Summary: C[C@@H]1CN(c2cccc(-c3csc(NC(=O)CNC(=O)c4ccnc(C(C)(C)C)c4)n3)c2)C[C@H](C)O1 [Compound 205] , BRM (Homo sapiens, UniProt P51531), IC50 = 0.1 to 1 µM

Summary: CC(C)(CO)c1cccc(C(=O)NCC(=O)Nc2nc(-c3cccc(C#N)c3)cs2)c1 [Compound 106] , BRM (Homo sapiens, UniProt P51531), IC50 = 1 to 5 µM

Summary: C[C@@H]1CN(c2cccc(-c3csc(NC(=O)CNC(=O)c4cccc5c4OCC[C@]5(C)CO)n3)c2)C[C@H](C)O1 [Compound 252] , BRM (Homo sapiens, UniProt P51531), IC50 = 1 to 5 µM
